# condition info: 420 K; Liquid; Gas chromatography
experimental endpoint: vapor or sublimation pressure (kPa)

[[record]]
molecule = "CCCCCCCCCCCC(O)CCCCC (stereo not drawn)"
recorded_value = 0.1853

[[record]]
molecule = "CCCCCCCCC(O)CCCCCCCC"
recorded_value = 0.1913

[[record]]
molecule = "CCCCCCCCCCC(O)CCCCCC (stereo not drawn)"
recorded_value = 0.192

[[record]]
molecule = "CC(C)CCC[C@@H](C)[C@H]1CC[C@H]2[C@@H]3CC=C4C[C@@H](O)CC[C@]4(C)[C@H]3CC[C@]12C"
recorded_value = 0.0005237

[[record]]
molecule = "CCCCCCCCCCCCCCCCCCCCO"
recorded_value = 0.02156


P: CCCCCCCCCCCCCCCCCCCCCCO
Q: CCCCCCCCCCCCCCCCCCCCCCCCCCO
R: CCCCCCCCCCCCCCCCCO
Q) Please rank these molecules by vapor or sublimation pressure in descending order. Give me the labels in the order the question wants.
A) R, P, Q

###

# condition info: 330 K; Liquid; Gas chromatography
experimental endpoint: vapor or sublimation pressure (kPa)

[[record]]
molecule = "CCCCCCCCCCC(O)CCCCCC (stereo not drawn)"
recorded_value = 0.0001153


P: CCCCCCCCCCCC(O)CCCCC (stereo not drawn)
Q: CC(C)CCC[C@@H](C)[C@H]1CC[C@H]2[C@@H]3CC=C4C[C@@H](O)CC[C@]4(C)[C@H]3CC[C@]12C
Q) I'd appreciate it if you could identify which of P and Q has the greater vapor or sublimation pressure. Return value: the label identifying the chosen record.
A) P
(P: 0.0001082 kPa, Q: 1.71e-08 kPa)

###

# condition info: 510 K; Liquid; Gas chromatography
experimental endpoint: vapor or sublimation pressure (kPa)

I: CCCCCCCCCCCC(O)CCCCC (stereo unspecified) [6-heptadecanol]
II: CCCCCCCCCCCCCCCCCCCCCCCCCCO [1-hexacosanol]
III: CC(C)CCC[C@@H](C)[C@H]1CC[C@H]2[C@@H]3CC=C4C[C@@H](O)CC[C@]4(C)[C@H]3CC[C@]12C [.DELTA.5-cholesten-3β-ol]
Q) Put the items in sequence by vapor or sublimation pressure, from largest down. Returns: the labels arranged in the requested order.
A) I, II, III

###

# condition info: 510 K; Liquid; Gas chromatography
experimental endpoint: vapor or sublimation pressure (kPa)

[[record]]
molecule = "CCCCCCCCC(O)CCCCCCCC"
experimental_endpoint = "vapor or sublimation pressure"
unit_tag = "kPa"
recorded_value = 9.568


a: CCCCCCCCCCCCCCCCCCCCCCO
b: CCCCCCCCCCC(O)CCCCCC (stereo not drawn)
Q) Endpoint returns the identifier whose vapor or sublimation pressure is numerically larger, either a or b . Indicate which entry you chose by stating its label.
A) b
